- Test system: CCRF-CEM leukemia
- experiment-description: NCI-60 one-dose screen, 48 h (100 = growth as untreated, 0 = no growth, -100 = all killed)
- conditions-used: 10 µM unless noted
Compounds without any hit were thinned out: in the full panel of roughly 83,000, 20% have a hit.
# growth annotations
result-type: growth (%)

{"compound": "CC(C)(O)/C=C/C(=O)[C@](C)(O)[C@H]1[C@H](O)C[C@@]2(C)[C@@H]3CC=C4[C@@H](C=C(O)C(=O)C4(C)C)[C@]3(C)C(=O)C[C@]12C", "result-type": "growth", "measurement-units": "%", "result-number": -29.1}
{"compound": "CCCCn1cc(C(=O)/C(C#N)=C/c2cc3ccccc3nc2Cl)c2cc(OC)ccc21", "result-type": "growth", "measurement-units": "%", "result-number": 33.4}
{"compound": "O=C(NCCNC(=O)c1ccc([As](O)O)cc1)c1ccc([As](O)O)cc1", "result-type": "growth", "measurement-units": "%", "result-number": 105}
{"compound": "CCC(CC)(c1ccccc1)C(OC(N)=O)c1ccccc1 (configuration not stated)", "result-type": "growth", "measurement-units": "%", "result-number": 88.9}
{"compound": "O=C(NCc1ccc([N+](=O)[O-])cc1)Nc1ccc(S(=O)(=O)F)cc1", "result-type": "growth", "measurement-units": "%", "result-number": 81.4}
{"compound": "CC[C@]12C=CCN3CC[C@@]4(c5ccc(OC)cc5N(C)[C@H]4[C@@](O)(C(=O)OC)[C@@H]1OC(=O)CCCN1CCN(CCCC(=O)O[C@@H]4[C@]5(CC)C=CCN6CC[C@@]7(c8ccc(OC)cc8N(C)[C@H]7[C@@]4(O)C(=O)OC)[C@@H]65)CC1)[C@@H]32", "result-type": "growth", "measurement-units": "%", "result-number": -56.7}
{"compound": "NC(Cc1ccc(O)cc1)C(=O)N/N=C/c1ccc(N(CCCl)CCCl)cc1 (configuration not stated)", "result-type": "growth", "measurement-units": "%", "result-number": 27.9}

* * *

# growth annotations
- Tested on: BT-549 breast
- experiment-description: NCI-60 one-dose screen, 48 h (100 = growth as untreated, 0 = no growth, -100 = all killed)
- conditions-used: 10 µM
Compounds without any hit were thinned out: in the full panel of roughly 83,000, 20% have a hit. Calls of active or inactive are those of the source. How the source made its calls: active means growth percent below 10; inactive means the rest.

{"molecule": "NC(=O)OCC(CO)(c1ccccc1)c1ccccc1", "growth": "107% (inactive)"}
{"molecule": "O=[N+]([O-])c1ccc2cnn(CSP(=S)(c3ccccc3)c3ccccc3)c2c1", "growth": "69.7% (inactive)"}
{"molecule": "CCCC(C)(C)c1ccc2c(c1)OC(C)(C)[C@@H]1CC=C(C)C[C@@H]21", "growth": "97.7% (inactive)"}
{"molecule": "COc1ccc(-c2ccc(OC)c(OC)c2OC)cc1", "growth": "20.2% (inactive)"}
{"molecule": "C[C@]12CC[C@H](OC3OC(O)C(O)C(O)C3O)C=C1CCC1C2CC[C@]2(C)[C@@H](c3ccc(=O)oc3)CC[C@]12O (stereo not given in full)", "growth": "-92.3% (active)"}
{"molecule": "CC(=O)O[C@H]1CCC2(C)C(=CCC3C2CCC2(C)/C(=N/OC(=O)c4ccc(N(CCCl)CCCl)cc4)CCC32)C1 (stereo not given in full)", "growth": "51.4% (inactive)"}
{"molecule": "COc1cc(CNCCc2ccc(Cl)cc2)cc(OC)c1O", "growth": "71.8% (inactive)"}
{"molecule": "c1ccc([As]=[As]c2ccccc2)cc1 (stereo not given)", "growth": "-96.5% (active)"}
{"molecule": "C1CNC2CCCC2C1 (stereo not given)", "growth": "102% (inactive)"}
{"molecule": "Fc1ccc(C2=NN(c3ccccc3)C(c3sc(N(CCCl)CCCl)nc3Cl)C2)cc1 (stereo not given)", "growth": "99.5% (inactive)"}
